Target: Neuronal acetylcholine receptor; alpha3/beta4 (Homo sapiens, UniProt P30926+P32297)
Assay: Agonist activity at recombinant human alpha3beta4 nAChR expressed in HEK293 cells assessed as induction of calcium influx by FLIPR assay relative to nicotine
Type: functional, cell-based

COMPOUND SMILES: Cc1cc(N2C[C@@H]3CN[C@@H]3C2)cnc1Cl
Activity (%): 100

COMPOUND SMILES: c1cncc(N2C[C@@H]3CN[C@@H]3C2)c1
Activity (%): 90

COMPOUND SMILES: Cc1ncc(N2C[C@@H]3CN[C@@H]3C2)cc1C#N
Activity (%): 94

COMPOUND SMILES: Cc1cc(N2C[C@@H]3CNC[C@@H]32)cnc1Cl
Activity (%): 89

COMPOUND SMILES: N#Cc1cncc(N2C[C@@H]3CN[C@@H]3C2)c1
Activity (%): 84

COMPOUND SMILES: Brc1cncc(N2C[C@@H]3CN[C@@H]3C2)c1
Activity (%): 68
